System: ACVR2B
Details: concentration: 1 μM, replicates: in singlicate; n = 1;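 further: KINOMEscan kinase panel screen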
measurement.label: %Inh (%)
Give the number; % is assumed, so skip it.

# annotated cases, reported %Inh shown
Fc1ccc(-c2ncn(CCCN3CCOCC3)c2-c2ccccn2)cc1 [SB-211742] | 19
NS(=O)(=O)c1cccc(-c2ccc3ncc(N4CCOCC4)nc3c2)c1 [GSK1535721] | 0

Give %Inh for N#Cc1ccc(-c2cc(-c3c[nH]nc3-c3ccccn3)ccn2)cc1 [GW693028] 40

Give %Inh for COc1ccc(S(=O)(=O)NC2CCN(c3cc(C)nc(Nc4cccc(C#N)c4)n3)CC2)cc1.O=C(O)C(F)(F)F [GSK1653539] 0

Give %Inh for CN(C1=C(c2ccccc2)C(=O)NC1=O)c1ccccc1 [SB-334860] 4

Give %Inh for NCC(NC(=O)c1cc(-c2cn[nH]c2)c(-c2ccnc3[nH]ccc23)s1)c1ccccc1.O=C(O)C(F)(F)F.O=C(O)C(F)(F)F (centres unmarked) [GSK1325775] 0

Give %Inh for c1ccc(-c2n[nH]cc2-c2ccnc3ccccc23)nc1 [GW271431] 75

Give %Inh for Nc1nc(-c2ccc3c(N)n[nH]c3c2)cc(N2CCCC2)n1 [GSK2227430] 0

###

Tested on: GAK
Conditions: concentration: 1 μM, replicates: in singlicate; n = 1
The entries below are paired with their reported %Inh.
Give the number; % is assumed, so skip it.

# annotated cases, reported %Inh shown
COc1cc(Nc2nccc(N3CCC(NC(=O)c4cccc(NC(C)=O)c4)C3)n2)cc(OC)c1OC (centres unmarked) [GSK1379754] | 44
COc1ccc(Nc2nccc(N3CCC(NC(=O)Nc4cccc(C(C)=O)c4)C3)n2)cc1 (centres unmarked) [GSK1379731] | 0
O=c1cc(N2CCOCC2)nc2n(Cc3cccc4ccccc34)ccn12 [GSK2333389] | 1
COc1ccc(S(=O)(=O)NC2CCN(c3cc(C)nc(Nc4cccc(C#N)c4)n3)CC2)cc1.O=C(O)C(F)(F)F [GSK1653539] | 0
CC(C)(C)n1cnc2c(N)ncnc21 [SKF-97359] | 0
O=C(NCCNc1ccnc(Nc2ccc(F)cc2)n1)Nc1ccccc1F [GSK1379880] | 0
Cc1ccc(C(=O)NCC(N)=O)cc1-n1c(C)cc(OCc2ccc(F)cc2F)c(Br)c1=O | 6

Give %Inh for O=c1cc(N2CCOCC2)nc2n(Cc3cccc(C(F)(F)F)c3)ccn12 [GSK2297543] 0

###

Tested on: CAMK1B
Conditions: concentration: 1 μM, replicates: in singlicate; n = 1
measurement.label: %Inh

COc1cc2c(cc1OC[C@@H](O)CO)ncc1c3ccc(C#N)cc3[nH]c21 | 27%
O=c1cc(N2CCOCC2)nc2n(Cc3cccc4ccccc34)ccn12 [GSK2333389] | 4%
Cc1c(Cn2c(C)nn3c(=O)cc(N4CCOC(C)C4)nc23)cccc1C(F)(F)F (stereo not drawn) [GSK2344444] | 10%
Cn1cc(-c2ccc3c(c2)CCN3C(=O)Cc2ccccc2Cl)c2c(N)ncnc21 [GSK2608885] | 33%
CNc1ncnc2[nH]ncc12 [SKF-18355] | 0%

Fetch value of %Inh on CAMK1B for O=C(NCCCN1CCOCC1)c1cccc(Nc2nccc(Nc3ccc(Oc4ccccc4)cc3)n2)c1 [GW663929] . 37%

Fetch value of %Inh on CAMK1B for COc1ccc(COc2cc(-n3cnc4ccccc43)sc2C(N)=O)cc1 [GSK1024304] . 0%

Fetch value of %Inh on CAMK1B for c1ccc(-c2cc(-c3c[nH]nc3-c3ccccn3)ccn2)cc1 [GW576604] . 10%

Fetch value of %Inh on CAMK1B for COc1cc2ncn(-c3cc(OCc4sccc4Cl)c(C(N)=O)s3)c2cc1OC [GSK448459] . 25%

Fetch value of %Inh on CAMK1B for Fc1ccc(-c2nn3c(OCC(F)(F)F)cccc3c2-c2ccncc2)cc1 [GW514784] . 0%

Fetch value of %Inh on CAMK1B for CN1c2ccc(NCc3ccc(F)cc3)cc2-c2c(cnn2C)S1(=O)=O . 0%

Fetch value of %Inh on CAMK1B for O=C(c1ccc(-c2cc(-c3c[nH]nc3-c3ccccn3)ccn2)cc1)N1CCOCC1 [GW812171] . 0%

Fetch value of %Inh on CAMK1B for COC(=O)Nc1nc2cc(Oc3ccc(NC(=O)Nc4cc(F)ccc4F)cc3)ccc2[nH]1.Cl [GW701424] . 27%

Fetch value of %Inh on CAMK1B for Cc1ccc(NC(=O)c2ccnc(N3CCN(C)CC3)c2)cc1-c1ccc(C(=O)NCC2CC2)cc1 [GW775604] . 0%

Fetch value of %Inh on CAMK1B for CN(C(=O)c1ccc(-c2cc(-c3c[nH]nc3-c3ccccn3)ccn2)cc1)C1CCOCC1 [GW810083] . 41%

Fetch value of %Inh on CAMK1B for Cn1ccc2ncnc(Oc3ccc(NC(=O)Nc4ccncc4)c(Cl)c3)c21 . 0%

Fetch value of %Inh on CAMK1B for O=C(NCCNc1ccnc(Nc2ccc(F)cc2)n1)Nc1ccccc1F [GSK1379880] . 0%

Fetch value of %Inh on CAMK1B for Cc1cccc(-c2nc(-c3ccc(S(C)(=O)=O)cc3)sc2-c2ccncc2)c1 . 0%
